Field: GI50. Provide a value for each of the molecules that follow.
system: UACC-257 melanoma; assay: NCI tumour cell line growth inhibition, 48 h

Solved cases (3 shown):
> print(dat)
                                   molecule  reported
1  COc1ccc(NC(=O)Nc2ccccc2CNc2nc(Nc3ccc(OCCN4CCCC4)cc3)ncc2Cl)cc1    926 nM
2  Oc1c(I)cc(I)cc1CNCCN(Cc1ccccn1)Cc1ccccn1   1890 nM
3  COc1ccc(C2C(C#N)=C(N)Oc3c2sc2c(F)cccc32)cc1 (centres undefined)  14600 nM

Consider the record given below.
Hello, please tell me recorded GI50 for this one: CCCN1CCN(c2ccc3nc(-c4ccc5nc(-c6ccc(C(F)(F)F)cc6)[nH]c5c4)[nH]c3c2)CC1
1850 nM

###

system: ACHN renal; test: NCI tumour cell line growth inhibition, 48 h
Provide the reported TGI of each item.

> print(dat)
                                   compound  reported
1  O=C(CC1C(=O)Nc2ccccc2S1(=O)=O)Nc1cc(Cl)ccc1Cl (configuration not stated)   35.7 µM
2  CC(C)/C=N\N1C(N)=C(C#N)C(C#N)(C#N)C1C(C)C (configuration not stated)  > 100 µM
3  CCCN1CCN(c2ccc3nc(-c4ccc5nc(-c6ccc(C(F)(F)F)cc6)[nH]c5c4)[nH]c3c2)CC1   2.96 µM

Need TGI for each of these compounds.
1. N#Cc1c(N2CCCC2)ncn(-c2ccccc2)c1=S
2. O=[N+]([O-])c1ccc(OCc2nnc(CCCCCCCCc3nnc(COc4ccc([N+](=O)[O-])cc4)o3)o2)cc1
3. CCSc1cc(C(=O)OC)c2n(c1=O)CCCC2
4. O=C(CSc1nnc(-c2ccccn2)s1)N/N=C/c1ccc([N+](=O)[O-])cc1

1. > 100 µM
2. > 100 µM
3. > 100 µM
4. > 100 µM

###

Provide the reported TGI of each item.
system: RXF 393 renal; assay: NCI tumour cell line growth inhibition, 48 h

A selection of reference data follows.
> print(dat)
                                   compound  observation.type  reported
1  CC(=O)OCC1OC(n2c3c(cc(C#N)c2=O)CCCCCC3)C(OC(C)=O)C(OC(C)=O)C1OC(C)=O (stereo not drawn)               TGI  > 100 µM
2          COc1ccc(C(=O)O)c(Br)c1OCc1ccccc1               TGI  > 100 µM
3                    COc1ccc2c(C)cc(C)nc2n1               TGI  > 100 µM
4  Cc1cc(Nc2nc(-c3ccc(F)cc3)nc3ccccc23)n[nH]1               TGI   5.09 µM
5              COc1ccc2oc(=N)c(C(N)=O)cc2c1               TGI  > 100 µM
6  CN(C(=O)Nc1ccc(Cl)c(Cl)c1)C1CCCC[C@@H]1N1CCCC1 (stereo partly drawn)               TGI  > 100 µM

Could you report TGI for every entry in the following list?
1. COC12OCCN(CCO)C1=CC(=O)C1(C)N=NC(C)C12 (stereo not drawn)
2. C1OC1C1CO1 (stereo not drawn)
3. O=C1NC(=NCc2ccccc2Br)S/C1=C\c1ccc2ncccc2c1
4. Nc1cccc(CCN2CCN(CCCc3ccccc3)CC2)c1

1: > 100 µM; 2: > 100 µM; 3: > 25 µM; 4: 52.2 µM

Hi there! I need TGI for each item below, if you can.
1. CC(C)(C)OC(=O)NC(Cc1ccc(OCc2ccccc2)cn1)C(=O)N1CCCC1 (stereo not drawn)
2. O=C(OCc1nc2nc(Cl)nc(N3CCOCC3)c2[nH]1)n1ccnc1
3. O=C1C(Br)=CC2C1C1C3CCC3C2(Br)C12OCCO2 (stereo not drawn)
4. Cc1ncc(C(=O)Nc2ccc(CN3CCN(C)CC3)c(C(F)(F)F)c2)cc1C#Cc1c(N)ncc2ccc(F)cc12

["> 100 µM", "3.06 µM", "11.6 µM", "1.29 µM"]

// each compound listed below needs its TGI
1. COC(=O)C1(C(=O)OC)CC(=O)c2c(OC(=O)c3cccc(OC)c3C#N)ccc(OC(=O)c3cccc(OC)c3C#N)c2C1
2. Cc1nn(-c2ccccc2)c2nc3c(c(C)nn3-c3ccccc3)c(-c3ccc(C(F)(F)F)cc3)c12

1: > 100 µM; 2: > 100 µM

Give TGI for each listed item.
1. Nc1ccc(Cc2ccc(N=Cc3ccc(OCc4cccc(COc5ccc(C=Nc6ccc(Cc7ccc(N)cc7)cc6)cc5)n4)cc3)cc2)cc1
2. N=C1N(/N=C/c2ccccn2)C(=Nc2ccccc2)C(=S)N1c1ccccc1

1. 68 µM
2. 16.4 µM

###

system: IGROV1 ovarian; experiment: NCI tumour cell line growth inhibition, 48 h
I'd be grateful if you could share measured TGI for these entries.

> print(dat)
                                   compound  subject.of.test  reported
1  O=C(CC(=O)N1N=C(N2c3ccccc3Sc3ccccc32)CC1c1ccccc1)Nc1ccccc1Cl (stereo unspecified)   IGROV1 ovarian  > 100 µM
2                  NCCNS(=O)(=O)c1ccc(N)cc1   IGROV1 ovarian  > 100 µM
3  Cc1cc(C)nc(NS(=O)(=O)c2ccc(NC(=O)c3cccc4c(Nc5ccc(S(=O)(=O)Nc6nc(C)cc(C)n6)cc5)c5ccc(Cl)cc5nc34)cc2)n1   IGROV1 ovarian  > 100 µM

Dear reader, for each entry below, please note its TGI.
1. CC(C)C(N=c1c2ccccc2n(O)c2ccccc12)C(=O)O (stereo unspecified)
2. NC(N)=N/N=C\c1ccc(C2CCNCC2)cc1
3. O=C1C(N2CCOCC2)=C(Cl)C(=O)c2ncccc21

["> 100 µM", "> 100 µM", "> 10 µM"]

###

What TGI was measured for each of the following?
system: M19-MEL melanoma; assay: NCI tumour cell line growth inhibition, 48 h

> print(dat)
                                   molecule  observation.type  reported
1  COC(=O)[C@@]12C(=O)CCC(=O)C1C1C(=CC2C)O[C@@H]2OC3(CCCCC3)O[C@H]12 (some centres not stated)               TGI  > 100 µM

List reported TGI for each of these molecules:
1. O=C(Cc1nc(-c2ccccc2)cc(=O)n1-c1ccccc1Cl)c1ccncc1
2. O=C1C=C(c2[nH]c3ccccc3c2C2=CC(=O)c3ccccc3C2=O)C(=O)c2ccccc21

> 100 µM
35.4 µM

Lab note: each molecule below needs its TGI filled in.
1. O=[As]O
2. C#C[C@]1(O)CCC2C3CCc4cc(Oc5nc(F)nc(-n6c(C)nc7cc8ccccc8cc76)n5)ccc4C3CCC21C (some centres not stated)
3. CC(C)(C)C1=Nc2c(Br)cc(C(C)(C)C)cc2C(C(F)(F)F)(C(F)(F)F)O1
4. CCOC(=O)Cn1c(=O)[nH]c(=O)c2c1ncn2Cc1ccccc1

["63.6 µM", "> 100 µM", "> 100 µM", "> 100 µM"]

###

system: HCC-2998 colon; assay: NCI tumour cell line growth inhibition, 48 h
OBSERVATION_TYPE: TGI

Dear reader, for each entry below, please note its TGI.
1. COc1cc(C)cc2c1[nH]c1ccccc12
2. O=c1[nH]cnc2c1ccn2C1OC(CO)C(O)C1O (stereo not drawn)
3. Cc1cc2c(=O)cc(-c3cccs3)oc2c(C(=O)O)c1C

1. > 25 µM
2. > 100 µM
3. > 100 µM

###

test system: SK-MEL-28 melanoma; experiment: NCI tumour cell line growth inhibition, 48 h
Please go through the items and note down their TGI.

Worked cases, TGI given:
> print(dat)
                                   molecule     subject.of.test  reported
1  C[C@H]1CCC/C=C/[C@@H]2C[C@H](O)C[C@H]2[C@H](O)[C@@H](S(=O)C[C@@H](N)C(=O)O)CC(=O)O1 (stereo not given in full)  SK-MEL-28 melanoma  > 100 µM
2  CCNCC(O)COc1ccc2c(c1)[n+]([O-])nc(N)[n+]2[O-] (stereo not given)  SK-MEL-28 melanoma  > 100 µM

Quick batch: TGI for everything below.
1. Cc1cc(S(=O)(=O)NC2=NCC(C)NN2)c(S)cc1Cl (stereo not given)
2. O=C(Nc1ccc2[nH]c3c(-c4ccccc4)nccc3c2c1)c1ccccc1[N+](=O)[O-]
3. C=C1c2nc3ccccc3n2C=C(c2ccc(OC)cc2)N1c1ccccc1
4. CC(=O)CC(=O)Nc1ccccc1[N+](=O)[O-]
5. COc1ccc(C(=O)NCCC2=CCCCC2)cc1
6. O=C1C=CC=C[C@@H]2C(C3OCCO3)CC[C@H]12.[C-]#[O+].[C-]#[O+].[C-]#[O+].[Fe] (stereo not given in full)
7. O=[As]O

["> 100 µM", "> 100 µM", "> 96.7 µM", "> 100 µM", "> 100 µM", "> 46.9 µM", "> 100 µM"]

// fetch TGI given entry Cc1ccc(NC(=O)/C=C/c2ccccc2)c(C)c1
> 100 µM

All values here come from PubChem BioAssay (NCI).
